target.or.test.system: UniProt:P35462
Sequence (P35462 whole entry): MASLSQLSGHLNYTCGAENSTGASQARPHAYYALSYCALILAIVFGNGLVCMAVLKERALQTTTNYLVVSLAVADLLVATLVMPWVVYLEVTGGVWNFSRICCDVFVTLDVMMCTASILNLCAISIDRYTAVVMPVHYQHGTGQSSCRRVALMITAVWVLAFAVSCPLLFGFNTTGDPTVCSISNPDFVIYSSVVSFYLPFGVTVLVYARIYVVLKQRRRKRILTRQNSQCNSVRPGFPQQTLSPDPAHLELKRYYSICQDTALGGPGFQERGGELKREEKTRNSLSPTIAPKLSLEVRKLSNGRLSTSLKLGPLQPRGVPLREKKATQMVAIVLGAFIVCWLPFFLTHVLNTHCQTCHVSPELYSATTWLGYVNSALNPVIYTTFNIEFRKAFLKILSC
pKi: −log10 of the molar value.
measured.parameter: pKi

> print(dat)
                                   compound  target.or.test.system  measured.parameter  observed.measurement
1  COC(C)CC(=O)N[C@H]1CC[C@H](CCN2CCC(c3noc4cc(Cl)ccc34)CC2)CC1 (some centres unmarked) [Example 43]         UniProt:P35462                 pKi                  8.00
2  O=C(CC1OCCCO1)N[C@H]1CC[C@H](CCN2CCC(c3noc4cc(Cl)ccc34)CC2)CC1 [Example 57]         UniProt:P35462                 pKi                  8.21
3  O=C(N[C@H]1CC[C@H](CCN2CCC(c3noc4cc(F)ccc34)CC2)CC1)C1(O)CC1 [Example 18]         UniProt:P35462                 pKi                  8.23
4  O=S(=O)(N[C@H]1CC[C@H](CCN2CCC(c3noc4cc(F)ccc34)CC2)CC1)c1ccc(Cl)cc1 [Example 48]         UniProt:P35462                 pKi                  8.23
5  CO[C@@H](C)CC(=O)N[C@H]1CC[C@H](CCN2CCC(c3noc4cc(Cl)ccc34)CC2)CC1 [Example 43B]         UniProt:P35462                 pKi                  8.22
